- Test Target: 5-hydroxytryptamine receptor 7 (Homo sapiens, UniProt P34969)
- Sequence (P34969 whole entry): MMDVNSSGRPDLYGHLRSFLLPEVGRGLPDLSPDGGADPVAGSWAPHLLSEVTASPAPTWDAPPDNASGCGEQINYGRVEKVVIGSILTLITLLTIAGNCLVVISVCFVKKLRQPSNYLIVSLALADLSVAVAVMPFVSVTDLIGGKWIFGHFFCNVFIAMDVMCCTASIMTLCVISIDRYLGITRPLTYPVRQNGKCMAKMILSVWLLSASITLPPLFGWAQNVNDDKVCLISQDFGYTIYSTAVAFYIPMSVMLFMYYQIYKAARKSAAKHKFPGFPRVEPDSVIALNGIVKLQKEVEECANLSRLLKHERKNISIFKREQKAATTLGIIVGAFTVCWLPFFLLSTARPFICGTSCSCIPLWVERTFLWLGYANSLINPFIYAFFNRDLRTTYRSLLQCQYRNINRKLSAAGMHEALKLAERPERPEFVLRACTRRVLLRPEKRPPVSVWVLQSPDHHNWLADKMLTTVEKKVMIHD
- Assay Comment: A similar stock of the reference compound chlorpromazine is also prepared as a positive control. Eleven dilutions (5× assay concentration) of the compound of the disclosure and chlorpromazine are prepared in the Assay Buffer by serial dilution to yield final corresponding assay concentrations ranging from 10 pM to 10 μM.A stock concentration of 5 nM [3H]LSD (lysergic acid diethyl amide) is prepared in 50 mM Tris-HCl, 10 mM MgCl2, 1 mM EDTA, pH 7.4 (Assay Buffer). Aliquots (50 μl) of radioligand are dispensed into the wells of a 96-well plate containing 100 μl of Assay Buffer. Duplicate 50-μl aliquots of the compound of the disclosure test and chlorpromazine positive control reference compound serial dilutions are added.Membrane fractions of cells expressing recombinant 5HT7 receptors (50 μL) are dispensed into each well. The membranes are prepared from stably transfected cell lines expressing 5HT7 receptors cultured on 10-cm plates by harvesting PBS-rinsed monolayers, resuspending and lysing in chilled, hypotonic 50 mM Tris-HCl, pH 7.4, centrifuging at 20,000×g, decanting the supernatant and storing at −80° C.; the membrane preparations are resuspended in 3 ml of chilled Assay Buffer and homogenized by several passages through a 26 gauge needle before using in the assay.The 250-μl reactions are incubated at room temperature for 1.5 hours, then harvested by rapid filtration onto 0.3% polyethyleneimine-treated, 96-well filter mats using a 96-well Filtermate harvester. Four rapid 500-μl washes are performed with chilled Assay Buffer to reduce non-specific binding. The filter mats are dried, then scintillant is added to the filters and the radioactivity retained on the filters is counted in a Microbeta scintillation counter.Raw data (dpm) representing total radioligand binding (i.e., specific+non-specific binding) are plotted as a function of the logarithm of the molar concentration of the competitor (i.e., test or reference compound).
Assay Readout: IC50

Enquiry: Fill in the blank: the reported IC50 of CCC1(CC)CC(CCN2CCC(C(O)(c3ccccc3)c3ccccc3)CC2)OC1=O (stereo unspecified) is ____.
Return: 3.16 µM
